Numbers sourced from patent US8952024B2.

Test system: blackgrass (Alopecurus myosuroides)
Assay Explanation: Test B pre-/postemergence plant response
Type: in vivo
Condition Parameters: 250 g ai/ha, Preemergence, 0 to 100 scale
Please go through the items and note down their Plant response rating, Blackgrass.
Answers are plain numbers.

entry_smiles=Cc1ccc(F)cc1-n1c(-c2ccccc2)ncc(C(=O)C2=C(O)CCCC2=O)c1=O reported_value=60
entry_smiles=CCCc1ncc(C(=O)C2=C(O)CCCC2=O)c(=O)n1-c1ccccc1C reported_value=10
entry_smiles=O=C1CCCC(O)=C1C(=O)c1cnc(-c2ccccc2)n(-c2ccccc2F)c1=O reported_value=10

Shifting focus to the compound that follows.
Qu. Name the recorded Plant response rating, Blackgrass of the compound listed here: CCCCc1ncc(C(=O)C2=C(O)CCCC2=O)c(=O)n1-c1ccc(C)cc1
Ans. 5

###

Tested on: rice (Oryza sativa)
Assay Explanation: Test B flooded paddy test
Type: in vivo
Condition Parameters: 250 g ai/ha; flooded paddy test; visual rating on 0 to 100 scale (0 no effect, 100 complete control) after 13 to 15 days
Reported Endpoint: Plant response rating, Flood, Rice
Numbers only.

Give Plant response rating, Flood, Rice for each listed item.
1. O=C1CCCC(O)=C1C(=O)c1cnc(-c2ccccc2)n(C2CCSCC2)c1=O
2. Cc1ccc(F)cc1-n1c(-c2ccccc2)ncc(C(=O)C2=C(O)CCCC2=O)c1=O
3. Cc1ccc(Cl)cc1-n1c(-c2cc(F)cc(F)c2)ncc(C(=O)C2=C(O)CCCC2=O)c1=O
4. Cc1ccc(-n2c(-c3ccccc3)ncc(C(=O)C3=C(O)CCCC3=O)c2=O)c(C)c1

Ans.
35
40
65
0

###

Test system: kochia (Kochia scoparia)
Assay Explanation: Test B pre-/postemergence plant response
Type: in vivo
Condition Parameters: Postemergence, 125 g ai/ha; scale 0 to 100 (0 no effect, 100 complete control)
Reported Endpoint: Plant response rating, Kochia
Give bare numbers.

Example molecules with recorded Plant response rating, Kochia:
molecule="O=C1CCCC(O)=C1C(=O)c1cnc(-c2ccccc2)n(C2CCCC2)c1=O [Compound 131]" reported_value=75
molecule="COCCn1c(-c2cc(F)cc(F)c2)ncc(C(=O)C2=C(O)CCCC2=O)c1=O [Compound 119]" reported_value=95
molecule="O=C1CCCC(O)=C1C(=O)c1cnc(-c2ccc(F)cc2)n(C2CCCCC2)c1=O [Compound 197]" reported_value=95

Qu. Give me measured Plant response rating, Kochia, please, for this molecule: O=C1CCCC(O)=C1C(=O)c1cnc(-c2cccc(F)c2)n(C2CCCCC2)c1=O [Compound 187]
Ans. 70

###

Tested on: wheat (Triticum aestivum)
Assay Explanation: Test B pre-/postemergence plant response
Format: in vivo
Condition Parameters: 62 g ai/ha, postemergence; 0 is no effect, 100 is complete control; 13 to 15 days
Reported Endpoint: Wheat plant response rating (0 to 100 scale)

// each listed compound needs a value for Wheat plant response rating (0 to 100 scale)
1. COCCn1c(-c2cccc(C)c2)ncc(C(=O)C2=C(O)CCCC2=O)c1=O [Compound 117]
2. COCCn1c(-c2cccc(Cl)c2)ncc(C(=O)C2=C(O)CCCC2=O)c1=O [Compound 147]
3. COCCn1c(-c2cccc(F)c2)ncc(C(=O)C2=C(O)CCCC2=O)c1=O [Compound 123]
4. CCCCn1c(-c2cccc(Cl)c2)ncc(C(=O)C2=C(O)CCCC2=O)c1=O [Compound 146]
5. O=C1CCCC(OC(=O)C2CC2)=C1C(=O)c1cnc(-c2ccccc2)n(-c2ccccc2)c1=O [Compound 88]
6. CCCn1c(-c2cccc(C(F)(F)F)c2)ncc(C(=O)C2=C(O)CCCC2=O)c1=O [Compound 155]

Ans.
5
5
15
0
5
30

List Wheat plant response rating (0 to 100 scale) for every entry below, keeping the order given.
1. CCCn1c(-c2cc(F)cc(F)c2)ncc(C(=O)C2=C(O)CCCC2=O)c1=O [Compound 152]
2. COCCn1c(-c2cc(F)cc(F)c2)ncc(C(=O)C2=C(O)CCCC2=O)c1=O [Compound 119]

Ans.
1. 50
2. 40

###

Tested on: winter barley (Hordeum vulgare)
Assay Explanation: Test B postemergence plant response
Type: in vivo
Condition Parameters: Postemergence, 62 g ai/ha; scale 0 (no effect) to 100 (complete control); 13 to 15 days
Reported Endpoint: Plant response rating, Barley
Give bare numbers.

Known Plant response rating, Barley results, listed for orientation:
molecule=Cc1ccccc1-n1c(-c2cccc(Cl)c2)ncc(C(=O)C2=C(O)CCCC2=O)c1=O reported_endpoint="Plant response rating, Barley" reported_value=10
molecule=Cc1ccccc1-n1c(-c2ccccc2)ncc(C(=O)C2=C(O)CCCC2=O)c1=O reported_endpoint="Plant response rating, Barley" reported_value=0
molecule="O=C1CCCC(O)=C1C(=O)c1cnc(-c2ccccc2)n(CC2CCCO2)c1=O (stereo not drawn)" reported_endpoint="Plant response rating, Barley" reported_value=0
molecule=Cc1ccc(-n2c(-c3ccccc3)ncc(C(=O)C3=C(O)CCCC3=O)c2=O)cc1 reported_endpoint="Plant response rating, Barley" reported_value=0
molecule=O=C1CCCC(O)=C1C(=O)c1cnc(-c2ccccc2)n(-c2cccc(Br)c2)c1=O reported_endpoint="Plant response rating, Barley" reported_value=0

We next turn to a different molecule, shown below.
Qu. Jot down Plant response rating, Barley (winter barley (Hordeum vulgare)) of Cc1cccc(Cl)c1-n1c(-c2ccccc2)ncc(C(=O)C2=C(O)CCCC2=O)c1=O .
Ans. 0

###

Hi there, I'd appreciate the recorded Plant response rating, Morningglory for every entry that follows.
Tested on: morningglory (Ipomoea spp.)
Assay Explanation: Test A pre-/postemergence plant response
Type: in vivo
Condition Parameters: Preemergence, 125 g ai/ha; 0 to 100 scale, 0 = no effect, 100 = complete control
Give bare numbers.

In the examples that follow, each entry is paired with its recorded Plant response rating, Morningglory.
molecule="COCCn1c(-c2cccc(F)c2)ncc(C(=O)C2=C(O)C3CCC(C3)C2=O)c1=O (stereo not shown)" reported_value=80
molecule=O=C1CCCC(O)=C1C(=O)c1cnc(-c2ccsc2)n(-c2ccccc2)c1=O reported_value=50

// input: 2 molecules below; output: Plant response rating, Morningglory for each
1. CCCCn1c(-c2cccc(C)c2)ncc(C(=O)C2=C(O)CCCC2=O)c1=O
2. Cn1c(-c2ccccc2)ncc(C(=O)C2=C(O)CCCC2=O)c1=O

Ans.
1: 0; 2: 30

###

Test system: winter barley (Hordeum vulgare)
Assay Explanation: Test B postemergence plant response
Type: in vivo
Condition Parameters: Postemergence, 125 g ai/ha; visual rating after 13 to 15 days, scale 0 (no effect) to 100 (complete control)
Reported Endpoint: Plant response rating, Barley
One number for each entry.

compound=CCCCc1ncc(C(=O)C2=C(O)CCCC2=O)c(=O)n1-c1ccccc1 study_target="winter barley (Hordeum vulgare)" reported_endpoint="Plant response rating, Barley" reported_value=0
compound=O=C1CCCC(O)=C1C(=O)c1cnc(-c2ccccc2)n(-c2cccc(Br)c2)c1=O study_target="winter barley (Hordeum vulgare)" reported_endpoint="Plant response rating, Barley" reported_value=0
compound=CC(C)n1c(-c2ccccc2)ncc(C(=O)C2=C(O)CCCC2=O)c1=O study_target="winter barley (Hordeum vulgare)" reported_endpoint="Plant response rating, Barley" reported_value=0
compound=Cc1c(Cl)cccc1-n1c(-c2ccccc2)ncc(C(=O)C2=C(O)CCCC2=O)c1=O study_target="winter barley (Hordeum vulgare)" reported_endpoint="Plant response rating, Barley" reported_value=10
compound=Cc1cc(C)cc(-n2c(-c3ccccc3)ncc(C(=O)C3=C(O)CCCC3=O)c2=O)c1 study_target="winter barley (Hordeum vulgare)" reported_endpoint="Plant response rating, Barley" reported_value=0
compound=Cc1ccccc1-n1c(-c2cccc(Cl)c2)ncc(C(=O)C2=C(O)CCCC2=O)c1=O study_target="winter barley (Hordeum vulgare)" reported_endpoint="Plant response rating, Barley" reported_value=20

// each listed compound needs a value for Plant response rating, Barley
1. Cc1cccc(Cl)c1-n1c(-c2ccccc2)ncc(C(=O)C2=C(O)CCCC2=O)c1=O
2. CCCc1ncc(C(=O)C2=C(O)CCCC2=O)c(=O)n1CC1CCCO1 (centres unmarked)

Ans.
[0, 0]

###

Please go through the items and note down their Plant response rating, Barnyardgrass.
Tested on: barnyardgrass (Echinochloa crus-galli)
Assay Explanation: Test B flooded paddy test
Format: in vivo
Condition Parameters: Flood (flooded paddy test), 125 g ai/ha; scale 0 to 100, 0 is no effect, 100 is complete control; 13 to 15 days
Answers are plain numbers.

These solved cases illustrate the format of a correct answer.
compound="CCn1c(-c2cccc(Cl)c2)ncc(C(=O)C2=C(O)CCCC2=O)c1=O [Compound 145]" reported_value=0
compound="Cc1ccc(Cl)cc1-n1c(-c2cccc(Br)c2)ncc(C(=O)C2=C(O)CCCC2=O)c1=O [Compound 144]" reported_value=0
compound="O=C1CCCC(O)=C1C(=O)c1cnc(-c2ccc(F)cc2)n(C2CCCCC2)c1=O [Compound 197]" reported_value=20

The following compounds each have a reported value; give each one's Plant response rating, Barnyardgrass.
1. COc1ccc(-n2c(-c3cccc(F)c3)ncc(C(=O)C3=C(O)CCCC3=O)c2=O)cc1 [Compound 203]
2. CCCn1c(-c2ccco2)ncc(C(=O)C2=C(O)CCCC2=O)c1=O [Compound 110]
3. CCCn1c(-c2ccc(F)cc2)ncc(C(=O)C2=C(O)CCCC2=O)c1=O [Compound 102]
4. CCc1cccc(-c2ncc(C(=O)C3=C(O)CCCC3=O)c(=O)n2C2CCCCC2)c1 [Compound 194]

Ans.
1. 0
2. 20
3. 60
4. 10

Qu. Specify Plant response rating, Barnyardgrass for O=C1CCCC(O)=C1C(=O)c1cnc(-c2ccccc2)n(-c2ccc(F)cc2F)c1=O [Compound 57] , system barnyardgrass (Echinochloa crus-galli).
Ans. 20
